test-system: NR1/NR2D receptors (Rattus norvegicus)
Sequence (Q62645 28-1323, other chains not shown): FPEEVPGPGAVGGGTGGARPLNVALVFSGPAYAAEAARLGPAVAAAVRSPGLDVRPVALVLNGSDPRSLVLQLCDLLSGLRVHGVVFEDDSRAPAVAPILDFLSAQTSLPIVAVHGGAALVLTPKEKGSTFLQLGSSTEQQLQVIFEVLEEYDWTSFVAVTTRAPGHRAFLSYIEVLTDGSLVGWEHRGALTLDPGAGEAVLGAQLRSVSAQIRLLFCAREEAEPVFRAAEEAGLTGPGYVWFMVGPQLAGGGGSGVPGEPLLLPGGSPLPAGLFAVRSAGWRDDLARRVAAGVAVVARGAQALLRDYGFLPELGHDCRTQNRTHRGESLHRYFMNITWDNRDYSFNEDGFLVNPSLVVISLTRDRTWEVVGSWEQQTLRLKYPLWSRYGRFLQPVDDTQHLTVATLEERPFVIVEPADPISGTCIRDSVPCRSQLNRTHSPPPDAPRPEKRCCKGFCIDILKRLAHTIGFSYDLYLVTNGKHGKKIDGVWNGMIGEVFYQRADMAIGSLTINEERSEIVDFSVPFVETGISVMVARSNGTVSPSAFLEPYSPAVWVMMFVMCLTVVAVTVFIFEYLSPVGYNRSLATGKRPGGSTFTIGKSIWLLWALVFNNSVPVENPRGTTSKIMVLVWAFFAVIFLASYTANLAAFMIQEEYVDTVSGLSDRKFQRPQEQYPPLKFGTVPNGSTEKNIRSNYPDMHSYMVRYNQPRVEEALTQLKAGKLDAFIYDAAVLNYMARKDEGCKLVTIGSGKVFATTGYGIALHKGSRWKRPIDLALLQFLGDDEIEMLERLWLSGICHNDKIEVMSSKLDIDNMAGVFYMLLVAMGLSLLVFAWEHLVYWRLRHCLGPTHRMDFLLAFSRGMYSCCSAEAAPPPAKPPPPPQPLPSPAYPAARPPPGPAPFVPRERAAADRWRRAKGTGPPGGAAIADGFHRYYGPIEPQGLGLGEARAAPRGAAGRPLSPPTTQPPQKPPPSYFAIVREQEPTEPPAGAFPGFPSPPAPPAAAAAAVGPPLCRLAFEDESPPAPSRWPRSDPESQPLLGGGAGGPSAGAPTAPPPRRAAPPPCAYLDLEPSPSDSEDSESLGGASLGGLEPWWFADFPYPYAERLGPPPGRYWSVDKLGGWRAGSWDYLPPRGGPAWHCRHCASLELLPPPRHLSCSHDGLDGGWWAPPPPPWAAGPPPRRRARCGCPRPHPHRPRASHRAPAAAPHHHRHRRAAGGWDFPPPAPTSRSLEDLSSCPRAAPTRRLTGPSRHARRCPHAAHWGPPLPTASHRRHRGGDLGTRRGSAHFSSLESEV
measurement-description: Two-electrode voltage-clamp, recombinant NR1/NR2D in Xenopus oocytes
Assay type: cell-based
condition-summary: read-out: agonist EC50, Control (no CIQ)
readout-type: pEC50
Worth noting: pEC50 values are minus log10 of concentrations stated in mol/L.

Query (compound): N[C@@H](CCC(=O)O)C(=O)O [Glutamate, reference compound] ; field requested: pEC50
6.52

* * *

test-system: NR1/NR2C receptors (Rattus norvegicus, UniProt Q00961)
Sequence (Q00961 20-1237, other chains not shown): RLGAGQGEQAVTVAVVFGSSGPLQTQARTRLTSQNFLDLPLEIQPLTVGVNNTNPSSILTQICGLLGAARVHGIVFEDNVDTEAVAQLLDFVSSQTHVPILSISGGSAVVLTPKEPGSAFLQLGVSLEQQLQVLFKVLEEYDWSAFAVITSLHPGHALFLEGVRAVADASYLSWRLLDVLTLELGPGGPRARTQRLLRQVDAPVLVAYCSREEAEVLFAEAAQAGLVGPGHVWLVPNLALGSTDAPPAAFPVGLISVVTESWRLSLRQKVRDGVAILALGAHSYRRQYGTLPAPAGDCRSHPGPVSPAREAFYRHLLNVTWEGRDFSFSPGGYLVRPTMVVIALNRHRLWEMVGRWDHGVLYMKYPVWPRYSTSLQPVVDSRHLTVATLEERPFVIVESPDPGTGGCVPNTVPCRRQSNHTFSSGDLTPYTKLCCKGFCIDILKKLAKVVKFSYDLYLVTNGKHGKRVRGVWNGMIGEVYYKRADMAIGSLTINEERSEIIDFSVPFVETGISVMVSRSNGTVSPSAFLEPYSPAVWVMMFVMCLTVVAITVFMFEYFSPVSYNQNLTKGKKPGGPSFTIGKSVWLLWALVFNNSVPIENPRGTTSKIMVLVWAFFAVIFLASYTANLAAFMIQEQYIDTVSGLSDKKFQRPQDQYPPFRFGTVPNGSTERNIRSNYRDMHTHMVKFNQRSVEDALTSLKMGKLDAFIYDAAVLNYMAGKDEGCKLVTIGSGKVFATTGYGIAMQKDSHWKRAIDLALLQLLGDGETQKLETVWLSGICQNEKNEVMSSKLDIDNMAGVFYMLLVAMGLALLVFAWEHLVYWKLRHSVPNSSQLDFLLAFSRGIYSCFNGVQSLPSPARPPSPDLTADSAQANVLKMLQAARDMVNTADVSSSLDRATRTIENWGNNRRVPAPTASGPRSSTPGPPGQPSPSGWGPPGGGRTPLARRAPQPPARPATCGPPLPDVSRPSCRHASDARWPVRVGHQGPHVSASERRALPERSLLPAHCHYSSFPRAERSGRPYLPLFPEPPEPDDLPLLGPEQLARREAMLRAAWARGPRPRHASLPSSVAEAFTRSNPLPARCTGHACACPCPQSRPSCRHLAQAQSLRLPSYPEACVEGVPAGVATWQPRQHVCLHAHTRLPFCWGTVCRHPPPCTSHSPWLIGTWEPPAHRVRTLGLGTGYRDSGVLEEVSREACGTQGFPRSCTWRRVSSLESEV
measurement-description: Two-electrode voltage-clamp, recombinant NR1/NR2C in Xenopus oocytes
Format: cell-based
condition-summary: read-out: agonist EC50, Control (no CIQ)
readout-type: EC50
# number then unit; no other words

I am curious: what EC50 value has been reported for N[C@@H](CCC(=O)O)C(=O)O [Glutamate, reference compound] ?
740 nM
